ASSAY_DETAILS: Stability of the compound assessed as compound remaining at 40 degC after 48 hrs by NMR spectroscopy in the presence of NaHCO3
Type: physicochemical
CONDITION_DESCRIPTION: NaHCO3 present; read-out: Stability
VALUE_TYPE: remaining at 48 h (%)
Write down the numeric answer in % and omit the unit.

Ask | Sample `NCC(=O)S` — what was its remaining at 48 h?
Reply | 76

====

ASSAY_DETAILS: Stability of the compound assessed as compound remaining at 25 degC after 24 hrs by NMR spectroscopy in the presence of NaHCO3
Assay type: physicochemical
CONDITION_DESCRIPTION: NaHCO3 present; read-out: Stability
VALUE_TYPE: remaining at 24 h (%)
Write down the numeric answer in % and omit the unit.

Ask | Sample `NCC(=O)S` — what was its remaining at 24 h?
Reply | 100

====

ASSAY_DETAILS: Stability of the compound assessed as compound remaining at 40 degC after 36 hrs by NMR spectroscopy in the presence of NaHCO3
Type: physicochemical
CONDITION_DESCRIPTION: NaHCO3 present; read-out: Stability
VALUE_TYPE: remaining at 36 h (%)
Write down the numeric answer in % and omit the unit.

Ask | Sample `NCC(=O)S` — what was its remaining at 36 h?
Reply | 83
